Just for reference, ChEMBL document CHEMBL1141418 is where these values come from.

# measurementTarget: Vasopressin V2 receptor (Rattus norvegicus, UniProt Q00788)
# Sequence (Q00788 whole entry): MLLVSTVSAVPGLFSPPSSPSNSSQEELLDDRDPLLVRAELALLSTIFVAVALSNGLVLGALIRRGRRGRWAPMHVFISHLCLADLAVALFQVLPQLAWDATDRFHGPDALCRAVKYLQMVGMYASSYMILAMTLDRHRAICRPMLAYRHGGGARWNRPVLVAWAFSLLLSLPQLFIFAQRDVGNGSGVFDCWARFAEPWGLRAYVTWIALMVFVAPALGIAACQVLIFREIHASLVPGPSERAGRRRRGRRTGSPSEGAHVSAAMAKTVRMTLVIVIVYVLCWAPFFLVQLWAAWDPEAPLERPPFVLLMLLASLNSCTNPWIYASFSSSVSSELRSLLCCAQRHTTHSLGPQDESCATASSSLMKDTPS
# protocolSummary: Displacement of [3H]AVP from vasopressin V2 receptor in rat kidney membranes
# Format: cell membranes, Membrane
Positions of bridges follow the written chain, without caps; N, C: chain ends. Non-standard residues stand in square brackets, D forms with d. Residues, ends and D or L forms follow the SMILES beside them. Orn = NCCC[C@H](N)C(=O)O; Mpa = O=C(O)CCS
Provide the recorded Ki for the entries that follow.

Return the recorded Ki value; entry: CC(C)[C@@H]1NC(=O)[C@H](Cc2ccccc2)NC(=O)[C@H](Cc2ccc(O)cc2)NC(=O)CCSSC[C@@H](C(=O)N2CCC[C@H]2C(=O)N[C@H](CCCNC(=N)N)C(=O)NCC(N)=O)NC(=O)[C@H](CC(N)=O)NC1=O ([Mpa]YFVNCP[dR]G-NH2; disulfide 1-6) 0.00026 µM (antagonist)

Return the recorded Ki value; entry: NCCCC[C@H](NC(=O)[C@@H]1CCCN1C(=O)[C@@H]1CSSCCC(=O)N[C@@H](Cc2ccc(O)cc2)C(=O)N[C@@H](Cc2ccccc2)C(=O)N[C@@H](CCCN)C(=O)N[C@@H](CC(N)=O)C(=O)N1)C(=O)NCC(N)=O ([Mpa]YF[Orn]NCPKG-NH2; disulfide 1-6) 0.051 µM (antagonist)
